Target: AKT2 (Homo sapiens, UniProt P31751)
Sequence (P31751 whole entry): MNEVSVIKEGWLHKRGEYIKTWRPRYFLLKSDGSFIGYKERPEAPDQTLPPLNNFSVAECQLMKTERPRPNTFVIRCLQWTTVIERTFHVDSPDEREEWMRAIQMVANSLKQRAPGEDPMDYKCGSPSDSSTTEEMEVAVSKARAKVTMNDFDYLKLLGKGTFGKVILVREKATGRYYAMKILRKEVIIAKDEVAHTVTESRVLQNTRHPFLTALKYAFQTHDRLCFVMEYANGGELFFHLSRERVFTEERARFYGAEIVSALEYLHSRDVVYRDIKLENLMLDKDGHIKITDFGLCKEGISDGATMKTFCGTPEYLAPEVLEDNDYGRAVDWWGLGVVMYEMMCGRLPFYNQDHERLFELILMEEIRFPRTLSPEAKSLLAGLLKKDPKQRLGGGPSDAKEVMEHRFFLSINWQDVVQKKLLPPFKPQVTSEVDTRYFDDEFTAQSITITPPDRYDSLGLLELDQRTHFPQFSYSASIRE
Test: AKT Kinase Assay (IMAP fluorescent polarisation) vs AKT2
Details: activated AKT2, FAM Crosstide substrate
Where a name gives a salt, the structure may show the parent alone.
MEASURED METRIC: IC50

Looking up "COc1nc(OCCO)nc2oc(-c3ccc(C4(N)CCC4)cc3)c(-c3ccccc3)c12" , I see its IC50 listed as 100 to 1000 nM

Looking up "COc1nc(N2CCN(C(C)=O)CC2)nc2oc(-c3ccc(C4(N)CCC4)cc3)c(-c3ccccc3)c12" , I see its IC50 listed as 100 to 1000 nM

Looking up CCn1cnc2oc(-c3ccc(C4(N)CCC4)cc3)c(-c3ccccc3)c2c1=O [Example 104, HCl] , I see its IC50 listed as ≤ 100 nM

Looking up "Cn1c(N2CCOCC2)nc2oc(-c3ccc(C4(N)CCC4)cc3)c(-c3ccccc3)c2c1=O" , I see its IC50 listed as 1000 to 10000 nM

Looking up "Nc1cnc2oc(-c3ccc(C4(N)CCC4)cc3)c(-c3ccccc3)c2c1" , I see its IC50 listed as 1000 to 10000 nM

Looking up Cn1c(=O)[nH]c2oc(-c3ccc(C4(N)CCC4)cc3)c(-c3ccccc3)c2c1=O [Example 124, hydrochloride] , I see its IC50 listed as 100 to 1000 nM

Looking up CC(=O)Nc1cccc(-c2cnc3oc(-c4ccc(C5(N)CCC5)cc4)c(-c4ccccc4)c3n2)c1 [Example 151, HCl] , I see its IC50 listed as 1000 to 10000 nM

Looking up CCNc1nc(NCCO)nc2oc(-c3ccc(C4(N)CCC4)cc3)c(-c3ccccc3)c12 [Example 81, HCl] , I see its IC50 listed as 1000 to 10000 nM

Looking up "NC1(c2ccc(-c3oc4nc(NCCO)ncc4c3-c3ccccc3)cc2)CCC1" , I see its IC50 listed as 100 to 1000 nM

Looking up "NC1(c2ccc(-c3oc4ncc(-c5cnn[nH]5)nc4c3-c3ccccc3)cc2)CCC1" , I see its IC50 listed as 1000 to 10000 nM

Looking up "Cn1c(N2CC(O)C2)nc2oc(-c3ccc(C4(N)CCC4)cc3)c(-c3ccccc3)c2c1=O" , I see its IC50 listed as 100 to 1000 nM

Looking up "CNc1nc2oc(-c3ccc(C4(N)CCC4)cc3)c(-c3ccccc3)c2c(=O)n1CC1CC1" , I see its IC50 listed as ≤ 100 nM

Looking up "CSc1cnc2c(-c3ccccc3)c(-c3ccc(C4(N)CCC4)cc3)[nH]c2n1" , I see its IC50 listed as 100 to 1000 nM

Looking up "NC1(c2ccc(-c3oc4ncc(-c5cncnc5)nc4c3-c3ccccc3)cc2)CCC1" , I see its IC50 listed as 100 to 1000 nM

Looking up "NC1(c2ccc(-c3oc4nc(NCCO)nc(N5CCOCC5)c4c3-c3ccccc3)cc2)CCC1" , I see its IC50 listed as 1000 to 10000 nM

Looking up "Cn1c(C2CC2)nc2oc(-c3ccc(C4(N)CCC4)cc3)c(-c3ccccc3)c2c1=O" , I see its IC50 listed as 100 to 1000 nM
